# System: FaDu
# assay: Cytotoxicity against human FADU cells assessed as reduction in cell viability after 96 hrs by SRB assay
# Type: functional, cell-based
property: EC50 (nM)

smilesText	systemTested	property	recordedMeasurement
CC(=O)OC[C@@]1(C)[C@@H]2CC[C@]3(C)[C@H](CC=C4[C@@H]5CC(C)(C)CC[C@]5(C(=O)O)CC[C@]43C)[C@@]2(C)CC[C@@H]1OC(C)=O	FaDu	EC50	15400
CC(=O)OC[C@@]1(C)[C@@H]2CC[C@]3(C)[C@H](CC=C4[C@@H]5CC(C)(C)CC[C@]5(C(=O)N5CCCC5)CC[C@]43C)[C@@]2(C)CC[C@@H]1OC(C)=O	FaDu	EC50	1600
CC(=O)OC[C@@]1(C)[C@@H]2CC[C@]3(C)[C@H](CC=C4[C@@H]5CC(C)(C)CC[C@]5(C(=O)NCCc5ccccn5)CC[C@]43C)[C@@]2(C)CC[C@@H]1OC(C)=O	FaDu	EC50	2800
CC(=O)OC[C@@]1(C)[C@@H]2CC[C@]3(C)[C@H](CC=C4[C@@H]5CC(C)(C)CC[C@]5(C(=O)NCCN5CCCC5)CC[C@]43C)[C@@]2(C)CC[C@@H]1OC(C)=O	FaDu	EC50	4000
CC(=O)OC[C@@]1(C)[C@@H]2CC[C@]3(C)[C@H](CC=C4[C@@H]5CC(C)(C)CC[C@]5(C(=O)NCc5cn(Cc6ccccc6[N+](=O)[O-])nn5)CC[C@]43C)[C@@]2(C)CC[C@@H]1OC(C)=O	FaDu	EC50	2800

* * *

# Test system: SW-1736
# assay: Cytotoxicity against human SW1736 cells assessed as reduction in cell viability after 96 hrs by SRB assay
# Assay type: functional, cell-based
# conditionLabel: SW-1736, 96 h

smilesText	EC50
CC1(C)CC[C@]2(C(=O)N3CCNCC3)CC[C@]3(C)C(=CC[C@@H]4[C@@]5(C)CC[C@H](O)[C@@](C)(CO)[C@@H]5CC[C@]43C)[C@@H]2C1	> 30 µM
CC(=O)OC[C@@]1(C)[C@@H]2CC[C@]3(C)[C@H](CC=C4[C@@H]5CC(C)(C)CC[C@]5(C(=O)NCCCCN)CC[C@]43C)[C@@]2(C)CC[C@@H]1OC(C)=O	> 30 µM
CC1(C)CC[C@]2(C(=O)O)CC[C@]3(C)C(=CC[C@@H]4[C@@]5(C)CC[C@H](O)[C@@](C)(CO)[C@@H]5CC[C@]43C)[C@@H]2C1	> 30 µM
